Hello, the source for this data is patent US12037324B2, in case you need it.

Molecular target: hAT1R (Homo sapiens, UniProt P30556)
Sequence (P30556 whole entry): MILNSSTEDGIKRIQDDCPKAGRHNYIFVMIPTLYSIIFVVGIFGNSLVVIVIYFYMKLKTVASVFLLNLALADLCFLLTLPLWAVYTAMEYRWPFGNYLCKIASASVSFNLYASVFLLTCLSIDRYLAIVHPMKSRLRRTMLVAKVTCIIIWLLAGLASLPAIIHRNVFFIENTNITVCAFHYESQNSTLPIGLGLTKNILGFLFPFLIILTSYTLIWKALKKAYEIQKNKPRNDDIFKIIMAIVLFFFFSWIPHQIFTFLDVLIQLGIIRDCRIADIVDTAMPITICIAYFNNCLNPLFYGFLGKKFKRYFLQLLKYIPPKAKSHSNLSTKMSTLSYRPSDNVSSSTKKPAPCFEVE
Assay: cell-based
Conditions: section of the 42nd table ending at r951, example numbering restarts after the DiscoveRx section; read-out: β-arrestin2 EC50
pEC50: −log10 of the molar value.
quantity: pEC50

| smiles-text | quantity | recorded-value |
| --- | --- | --- |
| CCOc1nc2cccc(C(=O)O)c2n1Cc1ccc(-c2cc(-c3cnccn3)ccc2-c2noc(=O)[nH]2)cc1 | pEC50 | 6.02 |
| CCc1nc2c(C)cc(C)nc2n1Cc1ccc(-c2cc(-c3ccccc3)ccc2C(=O)NS(C)(=O)=O)cc1 | pEC50 | 6.95 |
| CCOc1nc2cccc(C(=O)O)c2n1Cc1ccc(-c2cc(-n3cc4ccccc4n3)ccc2-c2nn[nH]n2)cc1 | pEC50 | 7.91 |
| CCCCc1nc(Cl)c(C(=O)O)n1Cc1ccc(-c2cc(-c3ccc(C(=O)N(C)C)cc3)ccc2-c2nn[nH]n2)cc1 | pEC50 | 7.01 |
